TARGET_OF_ASSAY: Nav1.7 (or SCN9A) channel; HEK cells stably transfected with hSCN9A (Homo sapiens, UniProt Q15858)
Construct: expressed in transfected cells
Sequence (Q15858 whole entry): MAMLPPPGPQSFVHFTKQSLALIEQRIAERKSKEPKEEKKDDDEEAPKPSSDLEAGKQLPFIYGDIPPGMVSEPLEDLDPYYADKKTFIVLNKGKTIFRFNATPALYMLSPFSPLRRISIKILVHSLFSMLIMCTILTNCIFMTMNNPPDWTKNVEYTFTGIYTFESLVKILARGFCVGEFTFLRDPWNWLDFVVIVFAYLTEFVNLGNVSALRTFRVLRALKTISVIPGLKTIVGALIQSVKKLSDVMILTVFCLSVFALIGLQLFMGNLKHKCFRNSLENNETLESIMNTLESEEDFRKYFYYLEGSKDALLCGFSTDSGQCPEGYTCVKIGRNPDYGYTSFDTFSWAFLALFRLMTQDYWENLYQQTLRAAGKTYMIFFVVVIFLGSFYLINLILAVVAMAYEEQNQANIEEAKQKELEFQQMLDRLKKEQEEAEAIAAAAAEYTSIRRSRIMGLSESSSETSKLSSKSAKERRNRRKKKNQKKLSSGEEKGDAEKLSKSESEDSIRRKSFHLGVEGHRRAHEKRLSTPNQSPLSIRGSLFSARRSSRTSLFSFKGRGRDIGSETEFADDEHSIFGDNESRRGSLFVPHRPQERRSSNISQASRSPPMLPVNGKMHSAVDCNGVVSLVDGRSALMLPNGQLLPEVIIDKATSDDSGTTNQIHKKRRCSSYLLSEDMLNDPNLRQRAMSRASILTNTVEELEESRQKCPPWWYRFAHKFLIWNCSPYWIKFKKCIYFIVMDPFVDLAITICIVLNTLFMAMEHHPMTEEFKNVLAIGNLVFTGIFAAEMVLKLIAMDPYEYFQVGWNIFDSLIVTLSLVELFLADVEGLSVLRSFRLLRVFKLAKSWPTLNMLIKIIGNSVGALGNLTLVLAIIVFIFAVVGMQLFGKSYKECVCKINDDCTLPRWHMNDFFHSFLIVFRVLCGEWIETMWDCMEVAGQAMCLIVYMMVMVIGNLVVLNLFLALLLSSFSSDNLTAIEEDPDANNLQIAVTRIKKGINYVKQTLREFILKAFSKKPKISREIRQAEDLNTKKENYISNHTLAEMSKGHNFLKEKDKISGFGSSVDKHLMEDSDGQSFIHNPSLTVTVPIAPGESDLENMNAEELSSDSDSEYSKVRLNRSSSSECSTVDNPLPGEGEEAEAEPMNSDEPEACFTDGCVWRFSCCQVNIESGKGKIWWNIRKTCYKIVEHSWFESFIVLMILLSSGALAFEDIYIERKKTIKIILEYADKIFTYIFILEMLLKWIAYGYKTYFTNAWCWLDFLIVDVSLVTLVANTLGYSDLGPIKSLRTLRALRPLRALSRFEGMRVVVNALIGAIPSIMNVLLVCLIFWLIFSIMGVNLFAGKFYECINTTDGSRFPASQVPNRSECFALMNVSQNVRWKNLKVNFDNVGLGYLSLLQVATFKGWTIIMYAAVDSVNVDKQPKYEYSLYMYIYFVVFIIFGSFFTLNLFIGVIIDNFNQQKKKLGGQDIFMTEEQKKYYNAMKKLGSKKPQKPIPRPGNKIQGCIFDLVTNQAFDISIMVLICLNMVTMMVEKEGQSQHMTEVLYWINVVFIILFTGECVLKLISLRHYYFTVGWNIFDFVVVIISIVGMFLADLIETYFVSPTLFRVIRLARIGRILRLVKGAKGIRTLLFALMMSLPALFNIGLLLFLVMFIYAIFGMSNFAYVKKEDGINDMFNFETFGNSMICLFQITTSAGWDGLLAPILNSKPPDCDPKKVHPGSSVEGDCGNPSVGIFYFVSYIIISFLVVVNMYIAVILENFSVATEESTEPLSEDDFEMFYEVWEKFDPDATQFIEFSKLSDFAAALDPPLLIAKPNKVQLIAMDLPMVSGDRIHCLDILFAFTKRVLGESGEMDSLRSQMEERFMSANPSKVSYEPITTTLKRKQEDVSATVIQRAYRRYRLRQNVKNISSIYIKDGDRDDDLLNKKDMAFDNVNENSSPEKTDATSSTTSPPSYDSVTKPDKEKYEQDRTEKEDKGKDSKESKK
MEASUREMENT_PROTOCOL: Nav1.7 block, PatchXpress 7000 automated whole-cell voltage clamp, estimated IC50 (EIC50)
Type: cell-based
TEST_CONTEXT: estimated IC50; hSCN9A HEK cells, PatchXpress platform; Examples 283-814
// values below are reported IC50
QUANTITY: IC50 (nM)

{"COMPOUND": "O=S(=O)(Nc1cscn1)c1cc(Cl)c(Oc2ccc(F)cc2-c2c[nH]nn2)cc1F [Example 521]", "MODIFIER_SIGN": "=", "VAL": 2900}
{"COMPOUND": "Cn1nc(C(F)(F)F)cc1-c1ccc(Oc2ccc(S(=O)(=O)Nc3nccs3)cc2F)cc1 [Example 684]", "MODIFIER_SIGN": "=", "VAL": 1000}
{"COMPOUND": "N#Cc1cc(S(=O)(=O)Nc2cscn2)ccc1Oc1ccc(Cl)cc1-n1cnc(C(F)(F)F)c1 [Example 397]", "MODIFIER_SIGN": ">", "VAL": 1000}
{"COMPOUND": "Cc1nnc(NS(=O)(=O)c2ccc(Oc3ccc(Cl)cc3-c3ccnn3C)c(F)c2)s1 [Example 776]", "MODIFIER_SIGN": "=", "VAL": 2500}
{"COMPOUND": "Cn1nccc1-c1cc(Cl)ccc1Oc1ccc(S(=O)(=O)Nc2ccccn2)cc1C#N [Example 442]", "MODIFIER_SIGN": "=", "VAL": 1300}
{"COMPOUND": "Cn1nccc1-c1cc(Cl)ccc1Oc1ccc(S(=O)(=O)Nc2ncsc2Cl)cc1C#N [Example 413]", "MODIFIER_SIGN": "=", "VAL": 12000}
{"COMPOUND": "Cn1nccc1-c1ccc(C(F)(F)F)cc1Oc1ccc(S(=O)(=O)Nc2nccs2)cc1C#N [Example 699]", "MODIFIER_SIGN": "=", "VAL": 140}
{"COMPOUND": "Cc1ccc(-c2ccnn2C)c(Oc2ccc(S(=O)(=O)Nc3nccs3)cc2C#N)c1 [Example 543]", "MODIFIER_SIGN": "=", "VAL": 66}

###

TARGET_OF_ASSAY: Nav1.7 (or SCN9A) channel; HEK cells stably transfected with hSCN9A (Homo sapiens, UniProt Q15858)
Construct: expressed in transfected cells
MEASUREMENT_PROTOCOL: Nav1.7 block, PatchXpress 7000 automated whole-cell voltage clamp, estimated IC50 (EIC50)
Type: cell-based
TEST_CONTEXT: PatchXpress platform; hSCN9A HEK cells held at V1/2 of inactivation; estimated IC50
// values below are reported IC50

{"COMPOUND": "CC(C)(C)n1nc(C(F)(F)F)cc1-c1ccc(Oc2ccc(S(=O)(=O)Nc3nccs3)cc2C#N)cc1 [Example 279]", "MODIFIER_SIGN": "=", "IC50, µM": 0.07}
{"COMPOUND": "NC(=O)c1cc(S(=O)(=O)Nc2nccs2)ccc1Oc1ccc(-c2cc(C(F)(F)F)n[nH]2)cc1 [Example 203]", "MODIFIER_SIGN": "=", "IC50, µM": 7.48}
{"COMPOUND": "Cc1cc(-c2ccccc2Oc2ccc(S(=O)(=O)Nc3nccs3)cc2F)sn1 [Example 128]", "MODIFIER_SIGN": "=", "IC50, µM": 3.11}
{"COMPOUND": "Cc1cc(C)n(-c2ccc(Oc3ccc(S(=O)(=O)Nc4nccs4)cc3F)cc2)n1 [Example 248]", "MODIFIER_SIGN": "=", "IC50, µM": 2.78}
{"COMPOUND": "Cc1ccc(Oc2ccc(C#N)cc2)c(Oc2ccc(S(=O)(=O)Nc3ncns3)cc2C#N)c1 [Example 78]", "MODIFIER_SIGN": "=", "IC50, µM": 0.6}
{"COMPOUND": "COC(=O)c1ccc(Oc2ccc(S(=O)(=O)Nc3ncns3)cc2C#N)c(-c2ccnn2C)c1 [Example 30]", "MODIFIER_SIGN": "=", "IC50, µM": 0.3}
{"COMPOUND": "CCOC(=O)Cn1nccc1-c1cc(F)ccc1Oc1ccc(S(=O)(=O)Nc2nccs2)cc1F [Example 221]", "MODIFIER_SIGN": "=", "IC50, µM": 0.45}
{"COMPOUND": "O=S(=O)(Nc1nccs1)c1ccc(Oc2nc(Cc3ccc(Cl)cc3)cs2)cc1F [Example 214]", "MODIFIER_SIGN": "=", "IC50, µM": 2.41}
{"COMPOUND": "N#Cc1cc(S(=O)(=O)Nc2nccs2)ccc1Oc1ccc(F)cc1-c1ccc(F)cc1 [Example 152]", "MODIFIER_SIGN": "=", "IC50, µM": 0.08}
{"COMPOUND": "O=S(=O)(Nc1nccs1)c1ccc(Oc2ccc(-c3cc(C(F)(F)F)n[nH]3)cc2)c(F)c1 [Example 246]", "MODIFIER_SIGN": "=", "IC50, µM": 3.76}
{"COMPOUND": "CC(C)(C)n1nccc1-c1c(Cl)cccc1Oc1ccc(S(=O)(=O)Nc2nccs2)cc1C#N [Example 198]", "MODIFIER_SIGN": "=", "IC50, µM": 2.47}
{"COMPOUND": "Cc1noc(C)c1Cc1ccc(Oc2ccc(S(=O)(=O)Nc3nccs3)cc2F)cc1 [Example 122]", "MODIFIER_SIGN": "=", "IC50, µM": 4.54}
{"COMPOUND": "N#Cc1cc(S(=O)(=O)Nc2ncns2)ccc1Oc1cc(C(F)(F)F)nn1-c1ccccc1F [Example 88]", "MODIFIER_SIGN": "=", "IC50, µM": 0.27}
{"COMPOUND": "N#Cc1cc(S(=O)(=O)Nc2ncns2)ccc1Oc1ccc(F)cc1-c1ccc(F)cc1F [Example 46]", "MODIFIER_SIGN": "=", "IC50, µM": 0.21}
{"COMPOUND": "O=S(=O)(Nc1nccs1)c1ccc(Oc2cc(C(F)(F)F)nn2-c2cc(F)ccc2F)c(F)c1 [Example 228]", "MODIFIER_SIGN": "=", "IC50, µM": 0.57}
{"COMPOUND": "Cc1nc(-c2ccccc2Oc2ccc(S(=O)(=O)Nc3nccs3)cc2F)cs1 [Example 130]", "MODIFIER_SIGN": "=", "IC50, µM": 9.19}
{"COMPOUND": "COCc1cccc(-c2cc(F)ccc2Oc2ccc(S(=O)(=O)Nc3nccs3)cc2C#N)c1 [Example 160]", "MODIFIER_SIGN": "=", "IC50, µM": 0.06}
{"COMPOUND": "Cn1nccc1-c1ccc(Oc2ccc(S(=O)(=O)Nc3nccs3)cc2C#N)c(Cl)c1 [Example 179]", "MODIFIER_SIGN": "=", "IC50, µM": 2.19}
{"COMPOUND": "Cc1ccc(Oc2ccc(S(=O)(=O)Nc3ncns3)cc2C#N)c(-c2nn(C)cc2C)c1 [Example 28]", "MODIFIER_SIGN": "=", "IC50, µM": 2.98}
{"COMPOUND": "CC(C)(C)n1ccc(-c2ccc(Oc3ccc(S(=O)(=O)Nc4nccs4)cc3C#N)c(F)c2)n1 [Example 184]", "MODIFIER_SIGN": "=", "IC50, µM": 9.17}
{"COMPOUND": "Cn1nccc1-c1cc(Cl)ccc1Oc1ccc(S(=O)(=O)Nc2nccs2)cc1C#N [Example 170]", "MODIFIER_SIGN": "=", "IC50, µM": 0.01}
{"COMPOUND": "O=S(=O)(Nc1nccs1)c1ccc(Oc2ccc(Cl)cc2-c2ccnn2Cc2ccccc2)c(F)c1 [Example 220]", "MODIFIER_SIGN": "=", "IC50, µM": 0.15}
{"COMPOUND": "O=S(=O)(Nc1nccs1)c1ccc(Oc2ccc(Cl)cc2-c2ccnn2-c2ccccc2)c(F)c1 [Example 227]", "MODIFIER_SIGN": "=", "IC50, µM": 0.03}
{"COMPOUND": "N#Cc1cc(S(=O)(=O)Nc2ncns2)ccc1Oc1ccccc1Oc1ccccc1C(N)=O [Example 76]", "MODIFIER_SIGN": ">", "IC50, µM": 10}
{"COMPOUND": "O=S(=O)(Nc1nccs1)c1ccc(Oc2ccc(-c3ccccc3)cc2)cc1F [Example 209]", "MODIFIER_SIGN": "=", "IC50, µM": 0.59}
{"COMPOUND": "Cc1c(Cl)ccc(Oc2ccc(S(=O)(=O)Nc3nccs3)cc2F)c1-c1nnco1 [Example 244]", "MODIFIER_SIGN": "=", "IC50, µM": 1.79}
{"COMPOUND": "Cc1ccc(Oc2ccc(S(=O)(=O)Nc3nccs3)cc2F)c(-c2[nH]ncc2C)c1 [Example 224]", "MODIFIER_SIGN": "=", "IC50, µM": 0.77}
{"COMPOUND": "Cc1cccc(-c2cccc(OC(F)(F)F)c2)c1Oc1ccc(S(=O)(=O)Nc2ncns2)cc1C#N [Example 37]", "MODIFIER_SIGN": "=", "IC50, µM": 30.9}
{"COMPOUND": "Cn1nc(Cc2ccc(Cl)cc2)cc1Oc1ccc(S(=O)(=O)Nc2nccs2)cc1F [Example 241]", "MODIFIER_SIGN": "=", "IC50, µM": 1.47}
{"COMPOUND": "Cc1ccc(Oc2ccc(S(=O)(=O)Nc3nccs3)cc2F)c(-c2ccnn2C)c1 [Example 222]", "MODIFIER_SIGN": "=", "IC50, µM": 0.06}
{"COMPOUND": "N#Cc1cc(S(=O)(=O)Nc2cncs2)ccc1Oc1ccccc1-c1ccccc1 [Example 105]", "MODIFIER_SIGN": "=", "IC50, µM": 2.67}
{"COMPOUND": "COCc1ccc(-c2cc(F)ccc2Oc2ccc(S(=O)(=O)Nc3nccs3)cc2C#N)cc1 [Example 163]", "MODIFIER_SIGN": "=", "IC50, µM": 0.41}
